Cited source: patent EP0070171A1

Catalogue of compounds with associated LD50 at 168 h
Experiment: Acute oral toxicity in mice (Experiment 2, deaths counted after 7 days)
Settings: mouse, in vivo, in aqueous physiological sodium chloride, doses 300 mg/kg or further 200, 100 or 1000 mg/kg, observation for 7 days, three or four mice per group, read-out: Dose of half being died

Here is how some compounds turned out for LD50 at 168 h.
1. O=C1Nc2ccc(Cl)cc2C2(CCN(CC(O)c3ccc(Cl)cc3)CC2)O1 (stereo not drawn)	> 300 mg/kg
2. O=C1Nc2ccccc2C2(CCN(CC(O)c3ccc(Cl)cc3)CC2)O1 (stereo not drawn)	> 300 mg/kg
3. O=C1Nc2ccccc2C2(CCN(CC(O)c3ccccc3)CC2)O1 (stereo not drawn)	> 300 mg/kg

# LD50 at 168 h (compound: CN1C(=O)Nc2ccccc2C12CCN(CC(O)c1ccccc1)CC2 (stereo not drawn) ) is 200 mg/kg

# LD50 at 168 h (compound: COc1ccc(C(O)CN2CCC3(CC2)OC(=O)Nc2ccccc23)cc1OC (stereo not drawn) ) is > 1000 mg/kg

# LD50 at 168 h (compound: COc1ccc(C(O)CN2CCC3(CC2)c2ccccc2NC(=O)N3C)cc1OC (stereo not drawn) ) is 100 to 300 mg/kg
